Test system: human dermal papilla cells
Test: Promotion of proliferation of human dermal papilla cells (CellTiter-Glo Luminescent cell viability assay)
Type: cell-based
Conditions: human dermal papilla cells (ScienCell, 2499); drug 0 to 30 μM; 48 hours; CellTiter-Glo luminescence; compared to DMSO-treated control group
Experimental: The effect of promoting cell proliferation by the drug was analyzed using human dermal papilla cells (ScienCell, 2499). […] Luminescence was measured using an Envision 2102 multilabeled reader (PerkinElmer) equipment, and the cell proliferation rate was analyzed by the activity of the drug-treated group compared to the DMSO-treated group (control group), which is a solvent of the drug.
Entries and their Maximum DP cell proliferation (%)
Lab book: enter the figure in %, no units written.

The examples below pair each entry with its known result.
| molecular-string | value-unit | Maximum DP cell proliferation (%) |
| --- | --- | --- |
| Nc1n[nH]c2nc(Nc3cccc4c3CCC4)cnc12 | % | 24 |
| Nc1nn(CC(=O)c2ccccc2)c2nc(Nc3cccc4c3CCC4)c(F)cc12 | % | 0.8 |
| Nc1n[nH]c2nc(Nc3cccc(C(F)(F)F)c3F)cnc12 | % | 25 |
| Cn1nc(N)c2cc(F)c(Nc3cccc4c3CCC4)nc21 | % | 13 |

Next compound, please.
Could you tell me which Maximum DP cell proliferation (%) is on file for "Nc1n[nH]c2nc(Nc3cccc4c3CCC4)c(F)cc12" ? 23

###

tested on: human dermal papilla cells; assay: Promotion of proliferation of human dermal papilla cells (CellTiter-Glo Luminescent cell viability assay); format: cell-based; conditions: human dermal papilla cells (ScienCell, 2499); drug 0 to 30 μM; 48 hours; CellTiter-Glo luminescence; compared to DMSO-treated control group
Quick reference: Maximum DP cell proliferation (%) of the listed items.
Use % as the unit, but write only the number.

Reference set, count: 4
| molecule | Maximum DP cell proliferation (%) |
| --- | --- |
| Nc1n[nH]c2nc(Nc3c4c(cc5c3CCC5)CCC4)c(F)cc12 | 4.6 |
| Nc1n[nH]c2nc(Nc3cccc4c3CCC4(F)F)c(F)cc12 | 15 |
| CCOC(=O)c1cc2c(N)n[nH]c2nc1Nc1cccc2c1CCC2 | 5.3 |
| Fc1cc2c(-c3ccccc3)n[nH]c2nc1Nc1cccc2c1CCC2 | 3.6 |

Next, consider the following molecule.
I am curious: what Maximum DP cell proliferation (%) value has been reported for O=C1c2ccccc2C(=O)N1c1nn(C2CCCCO2)c2nc(Nc3cccc4c3CCC4)c(F)cc12 (centres unmarked) ? 10

###

Tested on: human dermal papilla cells
Test: Promotion of proliferation of human dermal papilla cells (CellTiter-Glo Luminescent cell viability assay)
Format: cell-based
Conditions: human dermal papilla cells (ScienCell, 2499); drug 0 to 30 μM; 48 hours; CellTiter-Glo luminescence; compared to DMSO-treated control group
Description: The effect of promoting cell proliferation by the drug was analyzed using human dermal papilla cells (ScienCell, 2499). […] Luminescence was measured using an Envision 2102 multilabeled reader (PerkinElmer) equipment, and the cell proliferation rate was analyzed by the activity of the drug-treated group compared to the DMSO-treated group (control group), which is a solvent of the drug.
Hi, to clarify the labels: 1 (yes) covers Maximum DP cell proliferation (%) from 6% upward, 0 (no) covers anything below 6%.

| compound | answer-label |
| --- | --- |
| Nc1n[nH]c2nc(Nc3c(O)ccc4c3CCC4)c(F)cc12 [Compound 57] | 0 (no) |
| Nc1n[nH]c2nc(Nc3cccc4occc34)c(F)cc12 [Compound 10] | 1 (yes) |
| O=C(Nc1n[nH]c2nc(Nc3cccc4c3CCC4)c(F)cc12)c1ccncc1 [Compound 91] | 1 (yes) |

Consider the additional compound presented here.
Check the entry CC(=O)n1nc(N)c2cc(F)c(Nc3cccc4c3CCC4)nc21 [Compound 88] : does Maximum DP cell proliferation (%) equal or exceed 6%? 1 (yes)

###

tested on: human dermal papilla cells; experiment: Promotion of proliferation of human dermal papilla cells (CellTiter-Glo Luminescent cell viability assay); format: cell-based; conditions: human dermal papilla cells (ScienCell, 2499); drug 0 to 30 μM; 48 hours; CellTiter-Glo luminescence; compared to DMSO-treated control group
Below is a list of entries, each paired with its recorded Maximum DP cell proliferation (%) value.
Numbers only here, please. The scale is %.

| molecular-string | value-unit | Maximum DP cell proliferation (%) |
| --- | --- | --- |
| CN(C)CCn1nc(N)c2cc(F)c(Nc3cccc4c3CCC4)nc21 | % | 1.2 |
| Nc1n[nH]c2nc(Nc3cccc4c3CNC4=O)c(F)cc12 | % | 2.4 |

Could you share which Maximum DP cell proliferation (%) value was measured for "CCCc1cc2c(N)n[nH]c2nc1Nc1cccc2c1CCC2" ? 3

Need Maximum DP cell proliferation (%) of "Nc1n[nH]c2nc(Nc3cccc(C(F)(F)F)c3F)ncc12" , thanks. 6.7

Find the recorded Maximum DP cell proliferation (%) belonging to "Cc1cc2c(c(Nc3nc4[nH]nc(N)c4cc3F)c1)CCC2" and report it. 6.8

Could you tell me which Maximum DP cell proliferation (%) is on file for "Cn1ccc2c(Nc3nc4[nH]nc(N)c4cc3F)cccc21" ? 7

Requested field: Maximum DP cell proliferation (%). Item: "Nc1n[nH]c2nc(Nc3cccc(C(F)F)c3F)cnc12" 7.9

Endpoint output: Maximum DP cell proliferation (%) of "Cc1ccc(Cl)c(Nc2nc3[nH]nc(N)c3cc2F)c1F" . Value? 4

Returns the measured Maximum DP cell proliferation (%) for the input compound. Input: "Fc1cc2c(Br)n[nH]c2nc1Nc1c(Br)cc(Br)c2c1CCC2" 1.3

Please give the measured Maximum DP cell proliferation (%) for this compound: "Cc1ccc2cccc(Nc3nc4[nH]nc(N)c4cc3F)c2c1" 3.2

###

test system: human dermal papilla cells; experiment: Promotion of proliferation of human dermal papilla cells (CellTiter-Glo Luminescent cell viability assay); format: cell-based; conditions: human dermal papilla cells (ScienCell, 2499); drug 0 to 30 μM; 48 hours; CellTiter-Glo luminescence; compared to DMSO-treated control group
Maximum DP cell proliferation (%) values by entry
State the result as a value with its unit after it.

Here are 8 compounds together with their reported answers.
| compound | Maximum DP cell proliferation (%) |
| --- | --- |
| Nc1n[nH]c2nc(Nc3cccc4c3CC=C4)c(F)cc12 [Compound 48] | 11% |
| Nc1n[nH]c2nc(Nc3cccc(C(F)F)c3F)ncc12 [Example 115] | 3.7% |
| Cc1c(Nc2nc3[nH]nc(N)c3cc2F)cccc1N(C)C [Compound 33] | 6.3% |
| Nc1n[nH]c2nc(Nc3cccc4c3CCC4)c(Cl)c(Cl)c12 [Compound 42] | 16% |
| Nc1n[nH]c2nc(Nc3cccc4c3CCC4)c(-c3ccccc3)cc12 [Compound 23] | 5% |
| Nc1n[nH]c2nc(Nc3cccc4c3COC4)c(F)cc12 [Compound 9] | 2.6% |
| CC1(C)Cc2cccc(Nc3nc4[nH]nc(N)c4cc3F)c2C1 [Compound 52] | 11% |
| CC1(C)CCc2c(Nc3nc4[nH]nc(N)c4cc3F)cccc21 [Compound 51] | 8.7% |

What value of Maximum DP cell proliferation (%) has been recorded for this entry: Nc1nn(Cc2ccccc2)c2nc(Nc3cccc4c3CCC4)c(F)cc12 [Compound 93] 2.8%

Consider the compound shown here: Nc1n[nH]c2nc(Nc3cccc4c3CCCC4)ccc12 [Compound 38] What is its recorded Maximum DP cell proliferation (%)? 2.2%

# get_value(readout='Maximum DP cell proliferation (%)', item= CC(=O)Cn1nc(N)c2cc(F)c(Nc3cccc4c3CCC4)nc21 [Compound 94] ) 18%

Which Maximum DP cell proliferation (%) is reported for this compound? Nc1n[nH]c2nc(Nc3cccc4c3CCC4)c(C(=O)O)cc12 [Compound 16] 6.1%

# get_value(readout='Maximum DP cell proliferation (%)', item= Nc1n[nH]c2nc(Nc3cccc4c3CCCC4)cnc12 [Compound 45] ) 7%

Reported Maximum DP cell proliferation (%) for Cc1nc(Nc2cccc3c2CCC3)nc2[nH]nc(N)c12 [Compound 84] : what is it? 7.4%

Please look up its Maximum DP cell proliferation (%): Nc1n[nH]c2nc(Nc3cccc(C(F)F)c3F)c(F)cc12 [Compound 61] 11%

What does the record list as Maximum DP cell proliferation (%) for Nc1n[nH]c2nc(Nc3cccc4c3CCCC4)c(F)cc12 [Compound 19] ? 9%

Query (compound): Nc1n[nH]c2nc(Nc3ccc(Cl)c(C(F)F)c3)c(F)cc12 [Compound 75] ; field requested: Maximum DP cell proliferation (%) 3%

GET /values?readout=Maximum DP cell proliferation (%)&item= Nc1n[nH]c2nc(Nc3cccc(Cl)c3Cl)c(F)cc12 [Compound 59] 15%

Looking for the measured Maximum DP cell proliferation (%) of Nc1n[nH]c2nc(Nc3cccc4ccccc34)ccc12 [Compound 35] , can you help? 1.2%

Which Maximum DP cell proliferation (%) is listed for Nc1n[nH]c2nc(Nc3cc(F)cc(C(F)(F)F)c3F)c(F)cc12 [Compound 73] ? 14%
